- Test Conditions: 298.15 K; 100 kPa; Liquid; Vibrating tube method
Here the recorded mass density is given for each entry.
Please give a number only; it is taken to be in kg/m3.

CCC(C)O (centres undefined)    802.7
O=Cc1ccccc1    1041.7
CCCC(C)O (centres undefined)    805.3

Request: # mass density lookup, item CC(C)O
Result: 781.1

###

- Test Conditions: 323.15 K; 100 kPa; Liquid; Concentric cylinders viscometry
Outcome Measure: viscosity (mPa·s)
Please give a number only; it is taken to be in mPa·s.

Worked set:
CCC(C)O (centres undefined)    1.33
CCCC(C)O (centres undefined)    1.39
O=Cc1ccccc1    1.03

Please look at the following molecule next.
Request: # viscosity lookup, item CC(C)O
Result: 1.05

###

Here the recorded viscosity is given for each entry.
- Test Conditions: 298.15 K; 100 kPa; Liquid; Concentric cylinders viscometry
Please give a number only; it is taken to be in mPa·s.

Worked set:
CCCC(C)O (centres undefined) [pentan-2-ol]    3.32
CC(C)O [propan-2-ol]    2.08
O=Cc1ccccc1 [benzaldehyde]    1.41

Please look at the following compound next.
Request: # viscosity lookup, item CCC(C)O (centres undefined) [butan-2-ol]
Result: 3.04
